Assay Comment: Stability of compound in PBS at pH 7.4 assessed as half-life measured after 48 hrs by UPLC-MS analysis
Type: physicochemical
Observable: half-life (h)

{"Compound String": "Cc1ccc(-c2nc3ccccc3s2)cc1NC(=O)c1cc([N+](=O)[O-])c(N2CCN(C)CC2)cc1Cl", "Observable": "half-life", "Recorded Value": 5.7}

====

Assay Comment: Elimination half-life in C57BL/6 mouse at 50 mg/kg, po measured after 144 hrs by LC-MS/MS analysis
Format: ADME, organism-based
Protocol Conditions: in vivo, read-out: beta t1/2 (converted)
Observable: half-life (h)

{"Compound String": "Cc1ccc(-c2nc3ccccc3s2)cc1NC(=O)c1cc([N+](=O)[O-])c(N2CCN(C)CC2)cc1Cl", "Observable": "half-life", "Unit Text": "h", "Recorded Value": 7}

====

Assay Comment: Protein binding in mouse plasma at 20 uM incubated for 18 hrs by UPLC-MS analysis
Format: ADME, cell-free
Protocol Conditions: read-out: PPB (converted)
Observable: fraction unbound at 18 h, 20 µM

{"Compound String": "Cc1ccc(-c2nc3ccccc3s2)cc1NC(=O)c1cc([N+](=O)[O-])c(N2CCN(C)CC2)cc1Cl", "Observable": "fraction unbound at 18 h, 20 µM", "Recorded Value": 0.009}

====

Tested on: HepG2
Assay Comment: Cytotoxicity against human HepG2 cells assessed as inhibition of cell growth incubated for 72 hrs by CellTiter-Glo luminescence assay
Type: functional, cell-based
Protocol Conditions: HepG2, 72 h
Observable: EC50

{"Compound String": "Cc1ccc(-c2nc3ccccc3s2)cc1NC(=O)c1cc([N+](=O)[O-])c(N2CCN(C)CC2)cc1Cl", "Observable": "EC50", "Recorded Value": "> 25 µM"}

====

Assay Comment: Drug concentration in C57BL/6 mouse brain at 50 mg/kg, po measured after 144 hrs by LC-MS/MS analysis
Format: ADME, organism-based
Protocol Conditions: read-out: Ct
Observable: concentration at 144 h (µM)

{"Compound String": "Cc1ccc(-c2nc3ccccc3s2)cc1NC(=O)c1cc([N+](=O)[O-])c(N2CCN(C)CC2)cc1Cl", "Unit Text": "µM", "Recorded Value": 8}

====

Assay Comment: Tmax in C57BL/6 mouse at 50 mg/kg, po measured after 144 hrs by LC-MS/MS analysis
Format: ADME, organism-based
Protocol Conditions: in vivo

{"Compound String": "Cc1ccc(-c2nc3ccccc3s2)cc1NC(=O)c1cc([N+](=O)[O-])c(N2CCN(C)CC2)cc1Cl", "Tmax / h": 4}

====

Assay Comment: Cmax in Sprague-Dawley rat at 6 mg/kg, iv measured after 45.3 hrs by LC/MS analysis
Assay type: ADME, organism-based
Protocol Conditions: in vivo
Observable: Cmax

{"Compound String": "Cc1ccc(-c2nc3ccccc3s2)cc1NC(=O)c1cc([N+](=O)[O-])c(N2CCN(C)CC2)cc1Cl", "Recorded Value": "> 10 µM"}

====

Assay Comment: Stability in human plasma assessed as half-life measured after 24 hrs by UPLC-MS analysis
Type: ADME, cell-free
Observable: half-life

{"Compound String": "Cc1ccc(-c2nc3ccccc3s2)cc1NC(=O)c1cc([N+](=O)[O-])c(N2CCN(C)CC2)cc1Cl", "Recorded Value": "> 1440 min"}

Every entry's value here was drawn from ChEMBL document CHEMBL5528063.
